- target under test: T1, human α-CGRP (Homo sapiens, UniProt P06881)
- T1 construct: 1-37 (WT); purchased GenScript Corporation or Global Peptide Services
- T1 sequence (P06881 83-119 limits assumed): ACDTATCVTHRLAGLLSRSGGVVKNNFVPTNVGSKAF
- measurement notes: Biacore SPR affinity of Fab fragments to N-biotinylated human α-CGRP on SA chip
- Format: binding
- settings: 37° C., screening mode except underlined values
outcome measure: α-human koff (s⁻¹)
Give the quantity in s⁻¹, number only.

Entry M27: G1 variant; L1 R28N T30A; HC-FW3 L99T A100V (antibody, V domains shown) VH: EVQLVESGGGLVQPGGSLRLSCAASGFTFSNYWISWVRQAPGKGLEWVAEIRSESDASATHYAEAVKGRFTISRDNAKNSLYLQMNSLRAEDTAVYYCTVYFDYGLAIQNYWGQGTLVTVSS VL: EIVLTQSPATLSLSPGERATLSCKASKNVATYVSWYQQKPGQAPRLLIYGASNRYLGIPARFSGSGSGTDFTLTISSLEPEDFAVYYCSQSYNYPYTFGQGTKLEIK — recorded α-human koff = 0.000357

Entry M28: G1 variant; L1 R28N T30D; H2 E54R A57N; HC-FW3 L99T A100V (antibody, V domains shown) VH: EVQLVESGGGLVQPGGSLRLSCAASGFTFSNYWISWVRQAPGKGLEWVAEIRSRSDNSATHYAEAVKGRFTISRDNAKNSLYLQMNSLRAEDTAVYYCTVYFDYGLAIQNYWGQGTLVTVSS VL: EIVLTQSPATLSLSPGERATLSCKASKNVDTYVSWYQQKPGQAPRLLIYGASNRYLGIPARFSGSGSGTDFTLTISSLEPEDFAVYYCSQSYNYPYTFGQGTKLEIK — recorded α-human koff = 9.96e-05

Entry M41: G1 variant; L1 R28N; L2 G50A L56T; H2 E54K A57N E64D; HC-FW3 L99T A100V (antibody, V domains shown) VH: EVQLVESGGGLVQPGGSLRLSCAASGFTFSNYWISWVRQAPGKGLEWVAEIRSKSDNSATHYADAVKGRFTISRDNAKNSLYLQMNSLRAEDTAVYYCTVYFDYGLAIQNYWGQGTLVTVSS VL: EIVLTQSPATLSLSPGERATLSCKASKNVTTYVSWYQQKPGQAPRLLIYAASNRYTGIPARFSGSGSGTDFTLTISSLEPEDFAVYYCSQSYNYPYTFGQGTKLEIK — recorded α-human koff = 0.00021

Entry M33: G1 variant; L1 R28N T30G; H2 E54K A57N S58G; HC-FW3 L99T A100V (antibody, V domains shown) VH: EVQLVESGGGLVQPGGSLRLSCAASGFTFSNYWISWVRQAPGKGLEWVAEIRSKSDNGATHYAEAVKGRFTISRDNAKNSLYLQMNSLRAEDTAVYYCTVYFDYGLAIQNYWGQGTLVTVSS VL: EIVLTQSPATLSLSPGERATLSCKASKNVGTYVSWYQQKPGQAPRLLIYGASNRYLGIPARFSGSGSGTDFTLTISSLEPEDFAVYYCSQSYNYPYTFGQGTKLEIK — recorded α-human koff = 0.00075

The measured values listed here are drawn from patent US20190071490A1.
